System: GST enzyme
Assay: GST activity assay in RL-34 cell lysate after treatment
Assay type: cell-based, rat
Settings: RL-34 cells, 25 ug/mL, 2 days, ratio over DMSO control
Measured parameter: Fold Induction of GST activity
Answer with the figure and its unit, nothing else.

Molecule smiles	Fold Induction of GST activity
CC1(C)CC[C@]2(C(=O)O)CC[C@]3(C)C(=CC[C@@H]4[C@@]5(C)CC[C@H](O)C(C)(C)[C@@H]5CC[C@]43C)[C@@H]2C1	1.0 fold
C=C1CC[C@@H]2[C@](C)(CO)[C@H](O)CC[C@@]2(C)[C@@H]1C/C=C1/C(=O)OC[C@H]1O	1.4 fold
O=C(/C=C/c1ccc(O)c(O)c1)O[C@@H]1C[C@](O)(C(=O)O)C[C@@H](O)[C@H]1O	1.1 fold
OCc1c[nH]c2ccccc12	1.1 fold

Moving on to another compound below.
Exercise: Which Fold Induction of GST activity is listed for O=c1oc2c(O)c3oc(=O)c4c5c(oc(=O)c6cc(O)c(O)c(O)c65)c(O)c5oc(=O)c(c2c2c(O)c(O)c(O)cc12)c3c54 ?
Solution: 1.0 fold

---

System: GST enzyme
Assay: GST activity assay in RL-34 cell lysate after treatment
Assay type: cell-based, rat
Details: RL-34 cells, 20 ug/mL, 2 days, ratio over DMSO control
Consider the following compounds; for each one, report its Fold Induction of GST activity.
One number for each entry, in fold.

Observe how each entry below is paired with its result.
Compound	Fold Induction of GST activity / fold
CC(C)Oc1ccc2c(=O)c(-c3ccccc3)coc2c1 [Ipriflavone]	1.1
C/C=C1/[C@H](O[C@@H]2O[C@H](CO)[C@@H](O)[C@H](O)[C@H]2O)OC=C(C(=O)OC)[C@H]1CC(=O)OCCc1ccc(O)c(O)c1 [Oleuropein]	1.0
CC/C=C\C/C=C\C/C=C\C/C=C\C/C=C\C/C=C\CCC(=O)O [DHA]	1.0

Moving on to another compound below.
Exercise: Which Fold Induction of GST activity is listed for O=C(CCc1ccc(O)cc1)c1c(O)cc(O)cc1O[C@@H]1O[C@H](CO)[C@@H](O)[C@H](O)[C@H]1O [Phloridzin] ?
Solution: 1.0

---

System: GST enzyme
Assay: GST activity assay in RL-34 cell lysate after treatment
Format: cell-based, rat
Conditions: RL-34 cells, 20 ug/mL, 2 days, ratio over DMSO control
Measured parameter: Fold Induction of GST activity (fold)
Give bare numbers, in fold.

Observe how each entry below is paired with its result.
Molecule	Tested on	Fold Induction of GST activity / fold
O=C1O[C@H]([C@@H](O)CO)C(O)=C1O	GST enzyme	1.1
O=C([O-])CC(O)(CC(=O)[O-])C(=O)[O-].[K+].[K+].[K+] [K-Citrate]	GST enzyme	1.1
CC1(C)C=Cc2c(ccc3c2OC[C@@H](c2ccc(O)cc2O)C3)O1	GST enzyme	1.0
C[C@@H]1O[C@@H](OC[C@H]2O[C@@H](Oc3c(-c4ccc(O)c(O)c4)oc4cc(O)cc(O)c4c3=O)[C@H](O)[C@@H](O)[C@@H]2O)[C@H](O)[C@H](O)[C@H]1O	GST enzyme	1.0
O=c1c(O)c(-c2ccc(O)c(O)c2)oc2cc(O)cc(O)c12	GST enzyme	1.0

For each of the molecules below, state Fold Induction of GST activity.
1. N[C@H]1C(O)O[C@H](CO)[C@@H](O)[C@@H]1O (some centres unmarked)
2. O=c1c(-c2ccc(O)cc2)coc2cc(O)cc(O)c12
3. COc1ccc2cc3[n+](cc2c1OC)CCc1cc2c(cc1-3)OCO2

Solution:
1.1
1.0
1.0
